- target_under_test: Phosphodiesterase 1 (Homo sapiens, UniProt P54750+Q01064+Q14123)
- method: Inhibition of phosphodiesterase 1
- Format: protein assay
observable: IC50 (nM)

[[record]]
structure_string = "CCOc1ccccc1-c1nc(O)c2ncn(C3CC3)c2n1"
measured_result = 1000

[[record]]
structure_string = "CCOc1ccc(S(=O)(=O)N2CCN(CCO)CC2)cc1-c1nc(O)c2c(C)nc(C3CCCC3)n2n1"
measured_result = 10

[[record]]
structure_string = "CCOc1ccccc1-c1nc(O)c2nnc(C3CCCC3)n2n1"
measured_result = 50

[[record]]
structure_string = "CCOc1ccc(S(=O)(=O)N2CCN(C)CC2)cc1-c1nc(O)c2c(C)nc(C3CCCC3)n2n1"
measured_result = 10

[[record]]
structure_string = "CCCc1nn(C)c2c(=O)[nH]c(-c3ccccc3OCC)nc12"
measured_result = 790


a. CCCc1nc(C)c2c(=O)[nH]c(-c3cc(S(=O)(=O)N4CCN(C)CC4)ccc3OCC)nn12
b. CCOc1ccccc1-c1nc(O)c2nnn(C3CCCC3)c2n1
c. CCOc1ccc(S(=O)(=O)N2CCN(CCO)CC2)cc1-c1nc(O)c2onc(C3CCCC3)c2n1
Could you please sort these 3 entries by IC50 from high to low? Provide the ranking by listing each label in its place in the requested order. b, a, c

P. CCCc1nc(C)n2c(O)nc(-c3cc(S(=O)(=O)N4CCN(C)CC4)ccc3OCC)nc12
Q. CCCn1nc(C)c2c(=O)[nH]c(-c3cc(S(=O)(=O)N4CCN(C)CC4)ccc3OCC)nc21
Field: lower IC50 | Options: P / Q Return value: the label identifying the chosen record. P

A. CCOc1ccccc1-c1nc(O)n2c(C)nc(C3CCCC3)c2n1
B. CCCc1nc(C)n2c(O)nc(-c3ccccc3OCC)nc12
C. CCCn1cnc2c(O)nc(-c3ccccc3OCC)nc21
D. CCCc1nc(C)c2c(=O)[nH]c(-c3ccccc3OCC)nn12
Arrange items by their IC50 values in increasing order. Provide the ranking by listing each label in its place in the requested order. C, A, B, D

---

These compounds were tested on cGMP-specific 3',5'-cyclic phosphodiesterase (Homo sapiens, UniProt O76074); pIC50 is the recorded read-out.
pIC50: −log10 of the molar value.
observable: pIC50

Some solved cases for reference:
[[record]]
structure_string = "CCCn1nc(C)c2c(=O)[nH]c(-c3ccccc3OCC)nc21"
target_under_test = "cGMP-specific 3',5'-cyclic phosphodiesterase (Homo sapiens, UniProt O76074)"
measured_result = 9.00

[[record]]
structure_string = "CCCc1n[nH]c2c(O)nc(-c3ccccc3OCC)nc12"
target_under_test = "cGMP-specific 3',5'-cyclic phosphodiesterase (Homo sapiens, UniProt O76074)"
measured_result = 7.30

[[record]]
structure_string = "CCCc1nc(C)n2c(O)nc(-c3ccccc3OCC)nc12"
target_under_test = "cGMP-specific 3',5'-cyclic phosphodiesterase (Homo sapiens, UniProt O76074)"
measured_result = 7.40

[[record]]
structure_string = "CCOc1ccccc1-c1nc(O)c2c(C)nc(C3CCCC3)n2n1"
target_under_test = "cGMP-specific 3',5'-cyclic phosphodiesterase (Homo sapiens, UniProt O76074)"
measured_result = 8.30

[[record]]
structure_string = "CCOc1ccccc1-c1nc(O)c2ncn(C3CC3)c2n1"
target_under_test = "cGMP-specific 3',5'-cyclic phosphodiesterase (Homo sapiens, UniProt O76074)"
measured_result = 6.52

[[record]]
structure_string = "CCOc1ccccc1-c1nc(O)n2c(C)nc(C3CCCC3)c2n1"
target_under_test = "cGMP-specific 3',5'-cyclic phosphodiesterase (Homo sapiens, UniProt O76074)"
measured_result = 7.70

[[record]]
structure_string = "CCOc1ccccc1-c1nc(O)c2nnn(C3CCCC3)c2n1"
target_under_test = "cGMP-specific 3',5'-cyclic phosphodiesterase (Homo sapiens, UniProt O76074)"
measured_result = 6.30

[[record]]
structure_string = "CCOc1ccc(S(=O)(=O)N2CCN(C)CC2)cc1-c1nc2c(c(CC)nn2C2CCCC2)c(=O)[nH]1"
target_under_test = "cGMP-specific 3',5'-cyclic phosphodiesterase (Homo sapiens, UniProt O76074)"
measured_result = 7.40


1. CCOc1ccc(S(=O)(=O)N2CCN(CCO)CC2)cc1-c1nc(O)c2nnc(C3CCCC3)n2n1
2. CCCn1nc(C)c2c(=O)[nH]c(-c3cc(S(=O)(=O)N4CCN(C)CC4)ccc3OCC)nc21
3. CCCn1nnc2c(O)nc(-c3ccccc3OCC)nc21
4. CCCc1nc(C)c2c(O)nc(-c3cc(S(=O)(=O)N4CCN(CCO)CC4)ccc3OCC)nn12
5. CCCn1nc(CC)c2c(=O)[nH]c(-c3cc(S(=O)(=O)N4CCN(C)CC4)ccc3OCC)nc21
Arrange items by their pIC50 values in increasing order. Provide the ranking by listing each label in its place in the requested order. 3, 1, 5, 2, 4

---

- target_under_test: Phosphodiesterase 1 (Homo sapiens, UniProt P54750+Q01064+Q14123)
- method: Inhibition of phosphodiesterase 1
- Format: protein assay
observable: IC50 (nM)

Some solved cases for reference:
[[record]]
structure_string = "CCCc1nc(C)c2c(O)nc(-c3cc(S(=O)(=O)N4CCN(CCO)CC4)ccc3OCC)nn12"
measured_result = 20

[[record]]
structure_string = "CCOc1ccccc1-c1nc(O)c2ncn(C3CCCC3)c2n1"
measured_result = 500

[[record]]
structure_string = "CCOc1ccc(S(=O)(=O)N2CCN(CCO)CC2)cc1-c1nc(O)c2nnc(C3CCCC3)n2n1"
measured_result = 50


1. CCOc1ccc(S(=O)(=O)N2CCN(CCO)CC2)cc1-c1nc(O)n2c(C)nc(C3CCCC3)c2n1
2. CCOc1ccccc1-c1nc(O)c2ncn(C3CCC3)c2n1
Field: lower IC50 | Options: 1 / 2 Return value: the label identifying the chosen record. 1

---

- target_under_test: Phosphodiesterase 1 (Homo sapiens, UniProt P54750+Q01064+Q14123)
- method: Inhibition of phosphodiesterase 1
- Type: protein assay
observable: IC50 (nM)

[[record]]
structure_string = "CCOc1ccccc1-c1nc(O)c2c(C)nc(C)n2n1"
observable = "IC50"
unit_text = "nM"
measured_result = 1000


1. CCOc1ccc(S(=O)(=O)N2CCN(CCO)CC2)cc1-c1nc(O)c2c(n1)c(C1CCCC1)nn2C
2. CCOc1ccccc1-c1nc(O)c2c(C)nc(C3CCCC3)n2n1
3. CCOc1ccc(S(=O)(=O)N2CCN(CCO)CC2)cc1-c1nc(O)c2c(C)nc(C)n2n1
4. CCOc1ccccc1-c1nc(O)c2onc(C3CCCC3)c2n1
Could you please sort these 4 entries by IC50 from high to low? Provide the ranking by listing each label in its place in the requested order. 3, 4, 2, 1
(3: 1000 nM, 4: 200 nM, 2: 30 nM, 1: 10 nM)

---

- target_under_test: Phosphodiesterase 1 (Homo sapiens, UniProt P54750+Q01064+Q14123)
- method: Inhibition of phosphodiesterase 1
- Type: protein assay
observable: IC50

Some solved cases for reference:
[[record]]
structure_string = "CCCc1nc(CC)c2c(O)nc(-c3cc(S(=O)(=O)N4CCN(C)CC4)ccc3OCC)nn12"
target_under_test = "Phosphodiesterase 1 (Homo sapiens, UniProt P54750+Q01064+Q14123)"
observable = "IC50"
measured_result = "> 1000 nM"

[[record]]
structure_string = "CCOc1ccc(S(=O)(=O)N2CCN(C)CC2)cc1-c1nc(O)c2c(CC)nc(C3CCCC3)n2n1"
target_under_test = "Phosphodiesterase 1 (Homo sapiens, UniProt P54750+Q01064+Q14123)"
observable = "IC50"
measured_result = "> 1000 nM"

[[record]]
structure_string = "CCCn1nc(CC)c2c(=O)[nH]c(-c3cc(S(=O)(=O)N4CCN(C)CC4)ccc3OCC)nc21"
target_under_test = "Phosphodiesterase 1 (Homo sapiens, UniProt P54750+Q01064+Q14123)"
observable = "IC50"
measured_result = "> 1000 nM"


Consider the record given below.
Endpoint output: IC50 of "CCOc1ccc(S(=O)(=O)N2CCN(C)CC2)cc1-c1nc2c(c(CC)nn2C2CCCC2)c(=O)[nH]1" . Value? > 1000 nM

Value source: ChEMBL document CHEMBL1142799
